# system_tested: T1, human GLP-2 receptor (human, UniProt O95838 1-553)
# T1 sequence (looked up): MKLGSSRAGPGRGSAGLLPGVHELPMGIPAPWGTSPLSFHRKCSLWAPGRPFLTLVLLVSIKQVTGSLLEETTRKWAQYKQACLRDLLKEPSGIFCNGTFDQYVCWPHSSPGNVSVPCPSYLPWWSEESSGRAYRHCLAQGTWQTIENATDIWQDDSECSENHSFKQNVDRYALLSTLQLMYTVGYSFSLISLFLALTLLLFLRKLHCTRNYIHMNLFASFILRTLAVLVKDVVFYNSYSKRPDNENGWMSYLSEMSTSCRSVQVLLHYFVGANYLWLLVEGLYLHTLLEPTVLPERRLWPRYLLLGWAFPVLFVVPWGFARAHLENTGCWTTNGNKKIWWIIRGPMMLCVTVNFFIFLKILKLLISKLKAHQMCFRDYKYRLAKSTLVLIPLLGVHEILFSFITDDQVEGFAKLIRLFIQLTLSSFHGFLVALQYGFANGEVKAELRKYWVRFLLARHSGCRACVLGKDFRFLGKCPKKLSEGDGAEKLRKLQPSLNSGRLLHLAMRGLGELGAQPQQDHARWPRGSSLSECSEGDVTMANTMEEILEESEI
# assay_details: cell-based or functional assay
Definition: the class of an entry is the range in range 1 (below 20 fold), range 2 (20 fold to below 50 fold), range 3 (50 fold or more) that contains its fold (EC50 vs native GLP-2).

Lookup: Note: place this binder into its band. Item: HVDGTFISDYSTILDNLAARDFINWLIQTKITD [GIP-GLP-2 co-agonist 12]
Found: range 2

Lookup: Note: place this binder into its band. Item: HADGTFISEYSTILDNLAARDFINWLIQTKITD [GIP-GLP-2 co-agonist 15]
Found: range 1

Lookup: Note: place this binder into its band. Item: HADGTFISDYSTILDNLAARDFINWLIQTKITK [GIP-GLP-2 co-agonist 18]
Found: range 1

Lookup: Note: place this binder into its band. Item: HADGTFISDYSTILDNLAARDFINWLIQTKGTD [GIP-GLP-2 co-agonist 16]
Found: range 3

Lookup: Note: place this binder into its band. Item: HAEGTFISDYSTILDNLAARDFINWLIQTKITD [GIP-GLP-2 co-agonist 1]
Found: range 3

Lookup: Note: place this binder into its band. Item: HADGTFISDYSTILDNLAARDFINWLIQTKITD [GIP-GLP-2 co-agonist 3]
Found: range 1

Lookup: Note: place this binder into its band. Item: HADGTFSSDYSTILDNLAARDFINWLIQTKITD [GIP-GLP-2 co-agonist 13]
Found: range 1

Lookup: Note: place this binder into its band. Item: HAEGSFISDYSTILDNLAARDFINWLIQTKITD [GIP-GLP-2 co-agonist 4]
Found: range 2

Lookup: Note: place this binder into its band. Item: HADGTFISDYSTILDNLAARDFINWLIQTKIKD [GIP-GLP-2 co-agonist 17]
Found: range 2

Lookup: Note: place this binder into its band. Item: HAEGTFISDYSTILDNLAARDFINWLIQTKITDNDWKHNITQ [GIP-GLP-2 co-agonist 2]
Found: range 3
